# Test system: DG-75 (Burkitt's Lymphoma)
# TEST PROTOCOL: combination Emax (second highest fraction inhibited in the dose matrix, 72 h); higher = more inhibition; extreme values may be limits of the assay
Entries and their measured combination Emax follow.
Please reply with the value in numeric form only.

| COMPOUND | combination Emax |
| --- | --- |
| CC(=O)c1c(C)c2cnc(Nc3ccc(N4CCNCC4)cn3)nc2n(C2CCCC2)c1=O [Palbociclib] + Cn1cnc2c(F)c(Nc3ccc(Br)cc3Cl)c(C(=O)NOCCO)cc21 [Selumetinib] (first compound max 10 µM, 7x7, partner max 10 µM) | 0.723 |
| C=CCn1c(=O)c2cnc(Nc3ccc(N4CCN(C)CC4)cc3)nc2n1-c1cccc(C(C)(C)O)n1 [AZD1775] + O=C(c1cc(Cc2n[nH]c(=O)c3ccccc23)ccc1F)N1CCN(C(=O)C2CC2)CC1 [Olaparib] (first compound max 1 µM, partner max 10 µM) | 0.694 |

Record summary for CN(CCO)CC[C@H](CSc1ccccc1)Nc1ccc(S(=O)(=O)NC(=O)c2ccc(N3CCC([C@@H](O)c4ccccc4-c4ccc(Cl)cc4)CC3)cc2)cc1S(=O)(=O)C(F)(F)F [AZD4320] + C[C@@H]1COCCN1C2=NC(=NC(=C2)C3(CC3)[S@](=N)(=O)C)C4=C5C=CNC5=NC=C4 [AZD6738] (first compound max 1 µM, 7x7, partner max 10 µM) : reported combination Emax = 0.768

Record summary for CCN(CCO)CCCOc1ccc2c(Nc3cc(CC(=O)Nc4cccc(F)c4)[nH]n3)ncnc2c1 [AZD2811] + C[C@@H]1COCCN1C2=NC(=NC(=C2)C3(CC3)[S@](=N)(=O)C)C4=C5C=CNC5=NC=C4 [AZD6738] (first compound max 1 µM, 7x7, partner max 10 µM) : reported combination Emax = 0.841

Record summary for COc1cccc(OCCCN)c1-c1cc(Nc2cnc(C#N)cn2)n[nH]1 [Prexasertib] + C=CCn1c(=O)c2cnc(Nc3ccc(N4CCN(C)CC4)cc3)nc2n1-c1cccc(C(C)(C)O)n1 [AZD1775] (first compound max 1 µM, partner max 1 µM) : reported combination Emax = 0.995

Record summary for NC1(C(=O)N[C@@H](CCO)c2ccc(Cl)cc2)CCN(c2ncnc3[nH]ccc23)CC1 [Capivasertib] + COc1nnc2ccc(N3CCC(c4ccc(OCCN5CCN(C)C(=O)[C@H]5C)cc4)CC3)nn12 [AZD5153] (first compound max 10 µM, 7x7, partner max 1 µM) : reported combination Emax = 0.884
